Recorded values, source PubChem BioAssay (NCI).

# System: TK-10 renal
# assayText: NCI-60 one-dose screen, 48 h
# details: 10 µM unless noted
# Protocol: Growth inhibition of the TK-10 human tumor cell line is measured as a screen for anti-cancer activity. Cells are grown in 96 well plates and exposed to the test compound for 48 hours. Compounds are tested at a single concentration, which is 10^-5 M for most compounds. The reported endpoint is percent growth (GI% or GIPRCNT), where numbers from 0 - 100% represent growth inhibition, and numbers from -100% - 0 represent cell death. For example, a value of 40 represents 60% growth inhibition. […]
This is part of a sample that, as a whole, favours compounds with a hit. Of some 83,000 tested, about 20% had one in any assay. Calls of active or inactive are those of the source. The calls were made as follows: active = growth percent below 10; inactive = the rest.
Would you mind answering with one of these outcomes? yes for active, no for inactive

Known results for compounds:
# compound, systemTested, labelValue
rows = [
    ("Nc1ncnc2c1N=C(c1ccc(F)cc1)CC(c1sc(Cl)nc1Cl)N2 (stereo unspecified)", "TK-10 renal", "no"),
    ("COc1ccc(-c2n[nH]nc2-c2cc(OC)c3c(c2)OCO3)cc1", "TK-10 renal", "no"),
    ("Nc1nc(N)c2cc(CNc3ccc(Cl)c(Cl)c3)ccc2n1", "TK-10 renal", "no"),
    ("C=C(C)C1CCC2(C(=O)O)CCC3(C)C(CCC4C5(C)CCC(O)C(C)(C)C5CCC43C)C12 (stereo unspecified)", "TK-10 renal", "no"),
    ("COc1cc(C2Nc3ccccc3S2)cc(CN2CCOCC2)c1O (stereo unspecified)", "TK-10 renal", "no"),
    ("CCCCNCC(O)c1cc2c(Cl)cc(Cl)cc2c2cc(C(F)(F)F)ccc12 (stereo unspecified)", "TK-10 renal", "yes"),
]

## Task State the result this test recorded for CCN(CC)CCCNc1cccc2c(C)cc(OC)nc12 .
## Result no

## Task Each compound tested received a call. Report the one for O=C(NC1CC1)c1ccc(-c2nc3ccc4[nH]ncc4c3c3c2CCCC3)cc1 .
## Result yes

## Task Name the outcome recorded for COc1ccc(CCN2COc3c([C@@H](C)CCC=C(C)C)ccc(C)c3C2)cc1OC in the assay.
## Result no

## Task Please share the test call associated with COc1ccc(/C=C/C(=O)c2ccc(NC(=O)CSc3nnc(-c4ccc(Cl)cc4)n3-c3ccccc3)cc2)cc1 .
## Result no

## Task Would you mind telling me which call this test gave COC1CC(N)C2OC(c3ccccc3)OCC2O1 (stereo unspecified) ?
## Result no

## Task Hi, sorry to bother you, what did the test record for O=[N+]([O-])c1cc(F)c2cccnc2c1O ?
## Result no
